Conditions: in n-propanol, 288.15 K
MEASUREMENT KIND: solubility (mole fraction)

INSERT INTO measurements (chem_smiles, measurement_kind, numeric_value) VALUES
  ('Cc1c(C(=O)O)cc([N+](=O)[O-])cc1[N+](=O)[O-]', 'solubility (mole fraction)', 0.0126);

---

Settings: in ethyl acetate, 293.15 K
MEASUREMENT KIND: solubility (mole fraction)

INSERT INTO measurements (chem_smiles, measurement_kind, numeric_value) VALUES
  ('Cc1c(C(=O)O)cc([N+](=O)[O-])cc1[N+](=O)[O-]', 'solubility (mole fraction)', 0.0271);

---

Settings: in water, 298.15 K
MEASUREMENT KIND: solubility (mole fraction)

INSERT INTO measurements (chem_smiles, result) VALUES
  ('Cc1c(C(=O)O)cc([N+](=O)[O-])cc1[N+](=O)[O-]', '3.5e-05');
